List of Gal4 activity range @ 0.1 μM (% inhibition) values.
System name: ligand binding domain of human RORγ (Homo sapiens)
Construct: host or cells: HEK293t
Sequence (P51449 269-508 limits assumed): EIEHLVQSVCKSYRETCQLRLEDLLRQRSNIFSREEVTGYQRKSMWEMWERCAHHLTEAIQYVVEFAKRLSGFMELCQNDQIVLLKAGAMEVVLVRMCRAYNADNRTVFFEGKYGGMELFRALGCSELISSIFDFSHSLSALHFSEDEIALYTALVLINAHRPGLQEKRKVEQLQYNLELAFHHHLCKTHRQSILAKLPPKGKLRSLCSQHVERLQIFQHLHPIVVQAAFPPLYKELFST
Protocol details: RORγ Reporter Assay (Gal4)
Type: cell-based
Condition description: RORγ Reporter Assay (Gal4), HEK293t reporter cells, compound at 0.1 μM; values are activity range bounds

Worked examples, 3 compounds total:
CC(=O)N1CCC(CNc2ncnc(N(Cc3ccc(C(F)(F)F)cc3)C3CC3)c2F)CC1: >50 % inhibition
CS(=O)(=O)N1CCC(C2(Nc3ncnc(N(Cc4ccc(C(F)(F)F)cc4)C4CC4)c3F)CC2)CC1: >50 % inhibition
CCCn1nc(C)cc1CN(C)c1ncnc(NCC2CCN(S(C)(=O)=O)CC2)c1F: >0 % inhibition

Could you now look at the following compound, please?
Return the recorded Gal4 activity range @ 0.1 μM (% inhibition) value; entry: C[S+]([O-])c1ccc(CNc2ncnc(N(Cc3ccc(C(F)(F)F)cc3)C3CC3)c2F)cc1 (stereo not shown)
>80 % inhibition

====

System name: human RORγt (Ligand Binding Domain) (Homo sapiens, UniProt P51449)
Sequence (P51449 269-508 limits assumed): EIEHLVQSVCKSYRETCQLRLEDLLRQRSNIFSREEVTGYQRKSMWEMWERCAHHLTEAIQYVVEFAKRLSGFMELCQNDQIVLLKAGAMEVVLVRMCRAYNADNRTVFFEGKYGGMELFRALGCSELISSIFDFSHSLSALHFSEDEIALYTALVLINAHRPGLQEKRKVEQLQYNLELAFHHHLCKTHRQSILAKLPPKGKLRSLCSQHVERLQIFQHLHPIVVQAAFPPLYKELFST
pIC50: −log10 of the molar value.
Property name: pIC50

Here's what some known entries look like.
CCOc1ccc(CN(c2ncnc(NCc3ccc(CC(N)=O)cc3)c2F)C2CC2)cc1: > 6.30
NC(=O)Cc1ccc(CNc2ncnc(N(Cc3c(Cl)cccc3Cl)C3CC3)c2F)cc1: > 6.30
CS(=O)(=O)N1CC2CCC(Nc3ncnc(N(Cc4ccc(C(F)(F)F)cc4)C4CC4)c3F)C2C1 (stereo not shown): > 6.30

Please look at the following molecule next.
Give the reported pIC50 for this molecule. O=S(=O)(Nc1ccc(CNc2ncnc(N(Cc3ccc(C(F)(F)F)nc3)C3CC3)c2F)cc1)C(F)F
> 5.00

====

System name: human RORγt (Ligand Binding Domain) (Homo sapiens, UniProt P51449)
Sequence (P51449 269-508 limits assumed): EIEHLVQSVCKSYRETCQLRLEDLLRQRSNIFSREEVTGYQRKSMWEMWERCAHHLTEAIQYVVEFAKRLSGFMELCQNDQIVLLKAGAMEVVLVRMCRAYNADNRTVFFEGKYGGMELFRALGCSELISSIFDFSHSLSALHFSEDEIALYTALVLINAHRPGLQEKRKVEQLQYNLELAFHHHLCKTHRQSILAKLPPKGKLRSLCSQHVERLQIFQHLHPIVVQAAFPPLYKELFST
Property name: IC50

CC(c1ccc(C(F)(F)F)cc1)N(c1ncnc(NCc2ccc(CC(N)=O)cc2)c1F)C1CC1 (stereo not shown): < 500 nM
NC(=O)Cc1ccc(CNc2ncnc(N(Cc3ccccc3Cl)C3CC3)c2F)cc1: < 500 nM
CC(C)c1ccc(CN(c2ncnc(NCc3ccc(CC(N)=O)cc3)c2F)C2CC2)cn1: < 500 nM

Query compound follows.
Please tell me the measured IC50 for CS(=O)(=O)N1CCC(C(=O)Nc2ncnc(N(Cc3ccc(C(F)(F)F)cc3)C3CC3)c2F)CC1 ; system: human RORγt (Ligand Binding Domain) (Homo sapiens, UniProt P51449).
< 10000 nM

Source: patent US10683293B2
